molecular target: dsDNA; assay: Binding affinity to human duplex ds26 DNA assessed as dissociation constant by MST analysis; assay type: nucleic-acid assay
Endpoint label: pKd
Reminder that pKd is minus the log10 of a molar concentration.

// query pKd value for entry CCN(CC)CCn1c2ccc(OC)cc2c2sc3cc(OC)ccc3c(=O)c21
5.89

---

target: Quadruplex DNA; assay: Binding affinity to human hybrid Tel23 G4 quadruplex DNA assessed as dissociation constant by MST analysis; format: nucleic-acid assay
Endpoint label: pKd
Hey, just a heads up that pKd is the negative log base 10 of the concentration in molar.

Please give the measured pKd for this compound: CCN(CC)CCn1c2ccc(OC)cc2c2sc3cc(OC)ccc3c(=O)c21
5.05

---

target: dsDNA; assay: Binding affinity to human […] Tel26-hy DNA assessed as dissociation constant by MST analysis; assay type: nucleic-acid assay
Endpoint label: Kd (µM)
The answer is to be given in µM; state only the numeric part.

Please report the recorded Kd for CCN(CC)CCn1c2ccc(OC)cc2c2sc3cc(OC)ccc3c(=O)c21 .
23

---

molecular target: Quadruplex DNA; assay: Binding affinity to human hybrid c-Myc G4 quadruplex DNA assessed as dissociation constant by MST analysis; assay type: nucleic-acid assay
Endpoint label: Kd (nM)
All answers are understood in nM, so give the number only.

Quick one: Kd for CCN(CC)CCn1c2ccc(OC)cc2c2sc3cc(OC)ccc3c(=O)c21 ?
2100
